# Test protocol: in vivo
# Condition context: Wistar, rat, iv, 0.3 mg/kg
Readout type: half-life at 24 h (min)
# value in min; strip the unit string

Sample FC(F)c1cncc(-c2ccc3ncc4nnc(C5=CCCOCC5)n4c3c2)c1 — what was its half-life at 24 h?
50.4

---

# Test protocol: in vivo
# Condition context: Wistar, rat, iv, 0.3 mg/kg
Readout type: Vd at 24 h (L/kg)
# value in L/kg; strip the unit string

Sample FC(F)c1cncc(-c2ccc3ncc4nnc(C5=CCCOCC5)n4c3c2)c1 — what was its Vd at 24 h?
1.8
